These data points were gathered from paper PMC12345401.

# PROTOCOL DESCRIPTION: Pharmacokinetic profile, plasma (LC-MS)
# Assay type: in vivo
# CONDITION SET: male, C57BL/6, ip; 0.3 mg/kg i.p., mouse plasma
MEASUREMENT LABEL: AUC(0-t)
Put your answer as a value accompanied by its unit after it.

Tell me the measured AUC(0-t) of C/C=C1/NC(=O)[C@@H]2CSC(=N2)[C@@H]2C[C@@H](C)N2C(=O)[C@@H](CC(C)C)NC(=O)[C@H](C)NC(=O)[C@@H](O)COC(=O)[C@H](C(C)C)N(C)C(=O)[C@H]([C@@H](C)O)NC(=O)[C@@H]2CCCCN2C1=O [vioprolide A] , please. 3.6 ng·h/mL

---

# PROTOCOL DESCRIPTION: Pharmacokinetic profile, plasma (LC-MS)
# Format: in vivo
# CONDITION SET: male, C57BL/6, ip; 0.3 mg/kg i.p., mouse plasma; read-out: V z/f (volume of distribution after extravascular administration)
MEASUREMENT LABEL: Vd/F (L/kg)
Kindly provide the numeric value in L/kg only, without the unit symbol.

Tell me the measured Vd/F of C/C=C1/NC(=O)[C@@H]2CSC(=N2)[C@@H]2C[C@@H](C)N2C(=O)[C@@H](CC(C)C)NC(=O)[C@H](C)NC(=O)[C@@H](O)COC(=O)[C@H](C(C)C)N(C)C(=O)[C@H]([C@@H](C)O)NC(=O)[C@@H]2CCCCN2C1=O [vioprolide A] , please. 116

---

# PROTOCOL DESCRIPTION: Pharmacokinetic profile, plasma (LC-MS)
# Assay type: in vivo
# CONDITION SET: male, C57BL/6, mouse, plasma, ip, 0.3 mg/kg, 0.3 mg/kg i.p., read-out: t 1/2z (half-life of the terminal slope) (converted)
MEASUREMENT LABEL: half-life

Tell me the measured half-life of C/C=C1/NC(=O)[C@@H]2CSC(=N2)[C@@H]2C[C@@H](C)N2C(=O)[C@@H](CC(C)C)NC(=O)[C@H](C)NC(=O)[C@@H](O)COC(=O)[C@H](C(C)C)N(C)C(=O)[C@H]([C@@H](C)O)NC(=O)[C@@H]2CCCCN2C1=O [vioprolide A] , please. ~1 h

---

# PROTOCOL DESCRIPTION: Pharmacokinetic profile, plasma (LC-MS)
# Type: in vivo
# CONDITION SET: male, C57BL/6, ip; 0.3 mg/kg i.p., mouse plasma
MEASUREMENT LABEL: Cmax (ng/mL)
Kindly provide the numeric value in ng/mL only, without the unit symbol.

Tell me the measured Cmax of C/C=C1/NC(=O)[C@@H]2CSC(=N2)[C@@H]2C[C@@H](C)N2C(=O)[C@@H](CC(C)C)NC(=O)[C@H](C)NC(=O)[C@@H](O)COC(=O)[C@H](C(C)C)N(C)C(=O)[C@H]([C@@H](C)O)NC(=O)[C@@H]2CCCCN2C1=O [vioprolide A] , please. 7.8

---

# PROTOCOL DESCRIPTION: Pharmacokinetic profile, plasma (LC-MS)
# Type: in vivo
# CONDITION SET: male, C57BL/6, ip; 0.3 mg/kg i.p., mouse plasma
MEASUREMENT LABEL: Tmax (min)
Kindly provide the numeric value in min only, without the unit symbol.

Tell me the measured Tmax of C/C=C1/NC(=O)[C@@H]2CSC(=N2)[C@@H]2C[C@@H](C)N2C(=O)[C@@H](CC(C)C)NC(=O)[C@H](C)NC(=O)[C@@H](O)COC(=O)[C@H](C(C)C)N(C)C(=O)[C@H]([C@@H](C)O)NC(=O)[C@@H]2CCCCN2C1=O [vioprolide A] , please. 15

---

# PROTOCOL DESCRIPTION: Pharmacokinetic profile, plasma (LC-MS)
# Format: in vivo
# CONDITION SET: male, C57BL/6, intraperitoneal; 0.3 mg/kg i.p., mouse plasma; read-out: C z (last analytically quantifiable concentration)
# Method: The pharmacokinetic profile of vioprolide A was determined by staff of Pharmacelsus (Saarbrücken, Germany) in male C57BL/6 mice as described (Balzulat et al. [2024]). […] Plasma and brain concentrations of vioprolide A were determined by LC–MS analysis. […]
MEASUREMENT LABEL: concentration at 4 h (ng/mL)
Kindly provide the numeric value in ng/mL only, without the unit symbol.

Tell me the measured concentration at 4 h of C/C=C1/NC(=O)[C@@H]2CSC(=N2)[C@@H]2C[C@@H](C)N2C(=O)[C@@H](CC(C)C)NC(=O)[C@H](C)NC(=O)[C@@H](O)COC(=O)[C@H](C(C)C)N(C)C(=O)[C@H]([C@@H](C)O)NC(=O)[C@@H]2CCCCN2C1=O [vioprolide A] , please. 0.1

---

# PROTOCOL DESCRIPTION: Pharmacokinetic profile, plasma (LC-MS)
# Format: in vivo
# CONDITION SET: male, C57BL/6, ip; 0.3 mg/kg i.p., mouse plasma; extrapolated to infinity
MEASUREMENT LABEL: AUC(0-inf)

Tell me the measured AUC(0-inf) of C/C=C1/NC(=O)[C@@H]2CSC(=N2)[C@@H]2C[C@@H](C)N2C(=O)[C@@H](CC(C)C)NC(=O)[C@H](C)NC(=O)[C@@H](O)COC(=O)[C@H](C(C)C)N(C)C(=O)[C@H]([C@@H](C)O)NC(=O)[C@@H]2CCCCN2C1=O [vioprolide A] , please. 3.8 ng·h/mL
